target: Glycogen synthase kinase-3 alpha (Homo sapiens) (UniProt P49840); experiment: concentration-response blocking of human GSK3A – biochemical, luminescence, cell-free homogeneous, retest, dose response (AID 463203); conditions: GSK-3 alpha enzyme, ADP-Glo luminescence, 60 min
Sequence (P49840 whole entry, looked up): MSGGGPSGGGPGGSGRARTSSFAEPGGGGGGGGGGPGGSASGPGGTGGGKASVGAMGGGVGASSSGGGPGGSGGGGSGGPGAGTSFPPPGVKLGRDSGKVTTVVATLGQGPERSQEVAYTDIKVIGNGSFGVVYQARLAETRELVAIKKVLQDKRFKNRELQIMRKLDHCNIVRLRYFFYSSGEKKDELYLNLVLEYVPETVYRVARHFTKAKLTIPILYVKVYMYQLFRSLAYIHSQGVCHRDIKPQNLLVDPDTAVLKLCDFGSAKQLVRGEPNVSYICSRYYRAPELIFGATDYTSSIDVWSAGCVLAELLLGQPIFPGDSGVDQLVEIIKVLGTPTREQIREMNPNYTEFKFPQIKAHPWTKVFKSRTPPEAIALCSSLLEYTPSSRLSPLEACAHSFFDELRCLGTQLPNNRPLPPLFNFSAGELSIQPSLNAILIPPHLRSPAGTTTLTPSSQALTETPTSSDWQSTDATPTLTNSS
The source made the active and inactive calls.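 Rule for the calls: active = more than half of replicate measurements showing over 20% loss of kinase signal relative to plate controls; inconclusive = some but at most half of replicates over 20% loss; inactive = no replicate over 20% signal loss.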
Respond only with the outcome that fits, drawn from Yes (active), No (inactive)

How was Cc1ccc(S(=O)(=O)CCSc2n[nH]c(=O)n2-c2ccccc2)cc1 classified in this test? Yes

How was Clc1ccc(C2=Nn3c(nnc3-c3cccnc3)SC2)s1 classified in this test? No

How was COc1ccc(NC(=O)Nc2ccccc2F)c(C)c1 classified in this test? No

How was CCOc1cc(/C=N/Nc2ncnc(Cl)c2N)ccc1O classified in this test? Yes

How was N#Cc1c2c(c(NCc3ccco3)n3c1nc1ccccc13)CCC2 classified in this test? No

How was Fc1ccccc1CSc1nnc(-c2cccnc2)o1 classified in this test? No

How was COc1ccc([C@H]2[C@H](C(=O)C(C)(C)C)N3N=Cc4ccccc4C3[C@]23N=C(c2ccccc2)OC3=O)cc1OC (stereo partly specified) classified in this test? No

How was Cc1cc(Nc2ccc(C(=O)O)cc2)nc(N)n1 classified in this test? No

How was CC(=O)N(C)c1ccc(N=Cc2cc3c(cc2[N+](=O)[O-])OCO3)cc1 classified in this test? Yes

How was Cc1cc(C(C#N)c2ccccc2F)n2ncnc2n1 (stereo unspecified) classified in this test? Yes

How was CN1/C(=C\C=C(/C#N)C(=O)Nc2ccc(Cl)cc2)C(C)(C)c2ccccc21 classified in this test? No

###

molecular target: Glycogen synthase kinase-3 alpha (Homo sapiens) (UniProt P49840); experiment: concentration-response blocking of human GSK3A – biochemical, luminescence, cell-free homogeneous, retest, dose response (AID 463203); conditions: GSK-3 alpha enzyme, ADP-Glo luminescence, 60 min
Calls of active or inactive are those of the source.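 The calls were made as follows: active = more than half of replicate measurements showing over 20% loss of kinase signal relative to plate controls; inconclusive = some but at most half of replicates over 20% loss; inactive = no replicate over 20% signal loss.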
Respond only with the outcome that fits, drawn from true (active), false (inactive)

How was COc1cc(NC(=O)c2cc([N+](=O)[O-])ccc2NC(=O)CNC2CCCCC2)cc(OC)c1 classified in this test? false

How was COc1ccc2nc(C)cc(N3CCN(S(=O)(=O)c4ccccc4F)CC3)c2c1 classified in this test? true

How was O=c1[nH]c(=O)n(Cc2ccc(F)cc2)c(O)c1C=NCCCn1ccnc1 classified in this test? false

How was CC(=O)Nc1ccc(S(=O)(=O)NC(C)c2ccncc2)cc1 (stereo unspecified) classified in this test? false

How was Cc1ccc(S(=O)(=O)Nc2ccc(O)c3cccnc23)cc1 classified in this test? false

How was CC(=O)c1sc(NC(=O)c2ccc3c(c2)OCO3)nc1C classified in this test? false

How was O=C(NC1CCCC1)c1ccc(Cn2c(=O)[nH]c3ccsc3c2=O)cc1 classified in this test? false

How was Cc1csc(NC(=O)C2CC(=O)N(c3ccc(C)c(C)c3)C2)n1 (stereo unspecified) classified in this test? false

How was CCOc1ccc(Cn2nnc(C(=O)Nc3cc(C)cc(C)c3)c2N)cc1 classified in this test? false

How was O=c1cc(-c2ccco2)oc2c1ccc1ccccc12 classified in this test? true

How was CN(Cc1ccccc1)c1ncnc(N)c1[N+](=O)[O-] classified in this test? true

###

molecular target: Glycogen synthase kinase-3 alpha (Homo sapiens); assay: concentration-response blocking of human GSK3A – biochemical, luminescence, cell-free homogeneous, retest, dose response (AID 463203); conditions: GSK-3 alpha enzyme, ADP-Glo luminescence, 60 min
Activity calls are given as the source filed them.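 How the source made its calls: active means more than half of replicate measurements showing over 20% loss of kinase signal relative to plate controls; inconclusive means some but at most half of replicates over 20% loss; inactive means no replicate over 20% signal loss.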
Respond only with the outcome that fits, drawn from active, inactive

How was COc1cccc(CC(=S)N2CCOCC2)c1 classified in this test? inactive

How was COC(=O)c1cnn(C(=O)c2cc(OC)ccc2Br)c1N classified in this test? inactive

How was O=S(=O)(Nc1ccccc1O)c1cccc2cccnc12 classified in this test? inactive

How was CC(C)(C)CNc1cc(N2CCCC2)ccc1[N+](=O)[O-] classified in this test? inactive

How was Brc1ccccc1C1=Nn2c(nnc2-c2ccccc2)SC1 classified in this test? inactive

How was CCCCc1ccc(NC(=O)N[C@H](C(=O)O)C(C)CC)cc1 (stereo partly specified) classified in this test? inactive

How was Cc1ccc(NC(=O)CSc2nnc(-c3ccncc3)o2)cc1 classified in this test? inactive

How was CC1=C(C(=O)OC(C)C)C(c2cccs2)n2ncnc2N1 (stereo unspecified) classified in this test? active

How was O=C(O)CN1C(=O)C2C3CC(C2C1=O)C1C(c2ccccc2)c2sc(=O)[nH]c2SC31 (stereo unspecified) classified in this test? inactive

How was COc1cc(-c2[nH]nc3c2C(c2ccoc2)C(C#N)=C(N)O3)cc(OC)c1OC (stereo unspecified) classified in this test? active

How was COc1ccc(OCC(=O)N2CCN(c3nnc(-c4ccc(C)cc4)c4ccccc34)CC2)cc1 classified in this test? inactive

###

target: Glycogen synthase kinase-3 alpha (Homo sapiens) (UniProt P49840); test: concentration-response blocking of human GSK3A – biochemical, luminescence, cell-free homogeneous, retest, dose response (AID 463203); details: GSK-3 alpha enzyme, ADP-Glo luminescence, 60 min
Activity calls are given as the source filed them.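 Rule for the calls: active = more than half of replicate measurements showing over 20% loss of kinase signal relative to plate controls; inconclusive = some but at most half of replicates over 20% loss; inactive = no replicate over 20% signal loss.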
I'd be grateful if you could share measured AC50 for these entries.

Consider Fc1ccccc1-c1n[nH]c(=S)n1/N=C/c1c[nH]c2ccccc12 . Its measured AC50 is 22.5 µM

Consider O=C(NCCCN1CCN(Cc2ccccc2Cl)CC1)Nc1ccccc1 . Its measured AC50 is > 30 µM (inactive)

Consider Cn1c2ccc(F)cc2c2nc3ccccc3nc21 . Its measured AC50 is > 30 µM (inactive)

Consider CN1/C(=C/C(=S)NC(=O)C2(C)CC2(Cl)Cl)C(C)(C)c2ccccc21 (centres undefined) . Its measured AC50 is > 30 µM (inactive)

Consider Cc1nc(NCC2CCCO2)nc2c1C(=O)CC(C)(C)C2 (centres undefined) . Its measured AC50 is > 30 µM (inactive)

Consider CC(Oc1ccccc1)C(=O)Nc1nnc(C2CCCCC2)s1 (centres undefined) . Its measured AC50 is > 30 µM (inactive)

Consider CC(=O)Nc1cccc(-c2csc(NCc3ccccc3)n2)c1 . Its measured AC50 is > 30 µM (inactive)

Consider O=C(CSc1nnc(SCc2ccccc2Cl)s1)N/N=C/c1ccc(C(=O)O)cc1 . Its measured AC50 is 5.94 µM

Consider CSc1nnc([C@@H](N)Cc2c[nH]c3ccccc23)o1 . Its measured AC50 is > 30 µM (inactive)

Consider COCCn1c(SCC(=O)Nc2cc(C)on2)nc2ccccc21 . Its measured AC50 is > 30 µM (inactive)

Consider COc1ccc2[nH]c(-c3ccc(C)cc3)cc(=O)c2c1 . Its measured AC50 is > 30 µM (inactive)

Consider COC1(OC)N=C(NC(=O)Nc2ccccc2)C2(C#N)C(c3ccccc3)C12C#N (centres undefined) . Its measured AC50 is > 30 µM (inactive)

Consider CC(C)(C)NCC(O)COc1ccccc1C(C)(C)C (centres undefined) . Its measured AC50 is > 30 µM (inactive)

Consider Cc1ccc2c(c1)COc1c3ccc(C(=O)N4CCOCC4)cc3nn1-2 . Its measured AC50 is > 30 µM (inactive)

Consider O=[N+]([O-])c1ccc(NCCCN2CCOCC2)c(Cl)c1 . Its measured AC50 is > 30 µM (inactive)

Consider c1ccc2c(c1)ccc1nnc(SCc3ccc4c(c3)OCO4)n12 . Its measured AC50 is > 30 µM (inactive)

Consider Cc1cccc(OCC(=O)NNC(=O)c2cc3ccccc3oc2=O)c1 . Its measured AC50 is > 30 µM (inactive)

Consider Cc1cc(C)nc(NS(=O)(=O)c2cccs2)c1 . Its measured AC50 is > 30 µM (inactive)

Consider CCN(CC)CCNC(=O)c1ccc(NC(=O)C2CCN(c3ncnc4sc(C)c(C)c34)CC2)cc1 . Its measured AC50 is 22.8 µM

Consider S=C(Nc1ccc(Cl)cc1)Nc1cccc2cnccc12 . Its measured AC50 is > 30 µM (inactive)

Consider NC(=O)Cn1cc(/C=N\NS(=O)(=O)c2cccc([N+](=O)[O-])c2)c2ccccc21 . Its measured AC50 is > 30 µM (inactive)

Consider O=C1c2cnc3nc(SCc4ccc(Cl)cc4)nn3c2CC2c3ccccc3CCN12 (centres undefined) . Its measured AC50 is > 30 µM (inactive)

Consider COc1ccc(N=Cc2c(O)[nH]c3ccccc23)cc1 . Its measured AC50 is 19.8 µM

Consider COc1ccc(Nc2nc(-c3ccccc3)cs2)cc1 . Its measured AC50 is > 30 µM (inactive)

Consider O=C(O)CCCNc1ccc([N+](=O)[O-])c(NCCCC(=O)O)n1 . Its measured AC50 is > 30 µM (inactive)

Consider O=C(NC(=S)Nc1cccc2c(O)cccc12)c1ccccc1[N+](=O)[O-] . Its measured AC50 is > 30 µM (inactive)

Consider COc1cc(C(=O)NNC(=O)C2CSC3(C)CCC(=O)N23)cc(OC)c1OC (centres undefined) . Its measured AC50 is > 30 µM (inactive)

Consider Cc1ccc(C(=O)N2NC(c3ccc(F)cc3)C3C(=O)N(c4ccc(C)cc4)C(=O)C32)cc1 (centres undefined) . Its measured AC50 is > 30 µM (inactive)

Consider c1ccc2c(CCNc3ncnc4nc[nH]c34)c[nH]c2c1 . Its measured AC50 is 23.1 µM

Consider CCOC(=O)c1nn(-c2ccc(Cl)cc2)c2nc(Nc3ccccc3)cc(=O)n12 . Its measured AC50 is > 30 µM (inactive)

Consider COCCNc1nc(N)c([N+](=O)[O-])c(NCc2ccccc2)n1 . Its measured AC50 is 7.15 µM

Consider COc1cc(/C=N/NC(=O)c2ccoc2C)ccc1O . Its measured AC50 is > 30 µM (inactive)

Consider O=C(CSc1nnc(SCC(=O)c2ccco2)s1)c1ccco1 . Its measured AC50 is > 30 µM (inactive)

Consider Cc1oc2c(Cl)c(Cl)c(O)c(CN(C)C)c2c1C(=O)c1ccc(Cl)cc1 . Its measured AC50 is 7.71 µM

Consider O=C(NCCc1csc(-c2cccnc2)n1)c1ccc(Br)o1 . Its measured AC50 is 17.8 µM

Consider O=c1[nH]nc(SCCS(=O)(=O)c2ccc(F)cc2)n1-c1ccccc1C(F)(F)F . Its measured AC50 is 17.5 µM

Consider Cc1ccc(C2CC(=O)N3CN(Cc4ccco4)CSC3=C2C#N)cc1 (centres undefined) . Its measured AC50 is > 30 µM (inactive)

Consider Cc1ccc(CSc2nnc(SCC(=O)N/N=C/c3ccc(C(=O)O)cc3)s2)cc1 . Its measured AC50 is > 30 µM (inactive)

Consider Cc1cc(=O)[nH]c2c(C)cc(S(=O)(=O)Nc3ccc(O)cc3)cc12 . Its measured AC50 is > 30 µM (inactive)

Consider COc1cc(NC(=O)c2cc([N+](=O)[O-])ccc2NC(=O)CNC2CCCCC2C)cc(OC)c1 (centres undefined) . Its measured AC50 is > 30 µM (inactive)

Consider CC(C)c1ccc(/C=N/NC(=O)c2nnn(-c3nonc3N)c2CN(C)C2CCCCC2)cc1 . Its measured AC50 is > 30 µM (inactive)

Consider COc1ccc(OC)c(/C=C2\S/C(=N/NC(=O)c3ccc4ccccc4c3)NC2=O)c1 . Its measured AC50 is > 30 µM (inactive)

Consider CCOC(=O)Cc1csc(NC(=O)C2CCCN(S(=O)(=O)c3cnc[nH]3)C2)n1 (centres undefined) . Its measured AC50 is > 30 µM (inactive)

Consider COc1ccc(C2=Nn3c(nnc3-c3ccncc3)SC2)cc1OC . Its measured AC50 is 2.37 µM

The values you see were collected from PubChem BioAssay AID463203.
